biological target: UniProt P96830; assay: Inhibition of Mycobacterium tuberculosis PTP-B using p-nitrophenyl phosphate as substrate at 25 uM measured for 10 mins by spectrofluorimetry
Sequence (P96830 as listed by the source): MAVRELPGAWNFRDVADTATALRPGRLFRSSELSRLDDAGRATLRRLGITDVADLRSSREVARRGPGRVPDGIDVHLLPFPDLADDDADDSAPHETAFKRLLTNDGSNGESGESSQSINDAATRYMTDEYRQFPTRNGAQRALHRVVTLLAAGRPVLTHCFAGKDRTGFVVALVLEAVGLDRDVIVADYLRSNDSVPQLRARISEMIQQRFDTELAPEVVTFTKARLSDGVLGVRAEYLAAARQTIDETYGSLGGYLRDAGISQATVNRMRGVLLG
ATTRIBUTE_MEASURED: inhibition (%)
The reply should contain only the number, in %.

Note to self: inhibition of `COc1cc(OC)c(C(=O)/C=C/c2ccc3c(c2)OCO3)c(OC)c1` with UniProt P96830 was 15

Entry `COc1ccc(C(=O)/C=C/c2ccc3c(c2)OCO3)c(OC)c1` ; assay system UniProt P96830; inhibition recorded at 0

// molecule `COc1cccc(OC)c1/C=C/C(=O)c1ccc2c(c1)OCO2` , assay UniProt P96830, inhibition value: 0

Item `COc1ccc(/C=C/C(=O)c2ccc3ccccc3c2)cc1` was tested on UniProt P96830; the reported inhibition is 0

Item: `O=C(/C=C/c1ccccc1)c1ccc2c(c1)OCO2` | System: UniProt P96830 | inhibition: 0

Entry `O=C(/C=C/c1ccc([N+](=O)[O-])cc1)c1ccc2c(c1)OCO2` under UniProt P96830 had inhibition of 10
